Target: HLA-A2402 (Homo sapiens, UniProt P04439, D101N/D140Y/D185E/E176V/E190D/F33S/G103R/G107R/I119L/I121M/I306V/K335N/L105A/L180Q/L300P/N151K/N90K/Q86E/Q94H/R106L/R138H/R89G/T104I/T345S/V100E/W191G/Y123F)
Test description: cell-based
Type: binding
Setup conditions: HLA-A2402 HMy2.CIR cells; competitor peptide 15μM; 24 hours; flow cytometry
Residues, ends and D or L forms follow the SMILES beside them.

Compound	inhibition at 15 µM
CC[C@H](C)[C@H](NC(=O)[C@H](CO)NC(=O)[C@H](Cc1ccc(O)cc1)NC(=O)[C@@H](N)CC(C)C)C(=O)N[C@@H](CC(C)C)C(=O)N[C@@H](CO)C(=O)N1CCC[C@H]1C(=O)N[C@@H](Cc1ccccc1)C(=O)N[C@@H](CC(C)C)C(=O)O [Epitope P19] (H-LYSILSPFL-OH; N-terminus and C-terminus assumed)	85%
CC(C)C[C@H](NC(=O)[C@H](C)NC(=O)[C@H](CO)NC(=O)[C@H](C)NC(=O)[C@@H](NC(=O)[C@H](CC(=O)O)NC(=O)[C@H](CC(C)C)NC(=O)[C@@H](N)CC(C)C)[C@@H](C)O)C(=O)N[C@@H](Cc1ccc(O)cc1)C(=O)O [Epitope P111]	19.1%
CC(C)C[C@H](NC(=O)[C@H](CC(C)C)NC(=O)[C@H](CCC(=O)O)NC(=O)[C@H](C)NC(=O)[C@@H](NC(=O)[C@@H](N)Cc1c[nH]cn1)[C@@H](C)O)C(=O)N[C@@H](C)C(=O)N[C@@H](C)C(=O)N[C@@H](CS)C(=O)N[C@@H](Cc1ccccc1)C(=O)O [Epitope P119] (H-HTAELLAACF-OH; N-terminus and C-terminus assumed)	15.8%
CC(C)C[C@H](NC(=O)[C@@H](N)Cc1ccccc1)C(=O)N[C@@H](Cc1c[nH]c2ccccc12)C(=O)N[C@@H](CCC(=O)O)C(=O)N[C@@H](Cc1c[nH]c2ccccc12)C(=O)N[C@@H](C)C(=O)N[C@@H](CO)C(=O)N[C@H](C(=O)N[C@@H](CCCNC(=N)N)C(=O)O)C(C)C [Epitope P78] (H-FLWEWASVR-OH; N-terminus and C-terminus assumed)	9.1%
CC(C)C[C@H](NC(=O)[C@@H](N)Cc1ccccc1)C(=O)N1CCC[C@H]1C(=O)N[C@@H](CO)C(=O)N[C@@H](CC(=O)O)C(=O)N[C@@H](Cc1ccccc1)C(=O)N[C@@H](Cc1ccccc1)C(=O)N1CCC[C@H]1C(=O)N[C@@H](CO)C(=O)N[C@H](C(=O)O)C(C)C [Epitope P1]	25%
CC(C)C[C@H](NC(=O)[C@H](CO)NC(=O)[C@H](CC(C)C)NC(=O)[C@@H](N)Cc1c[nH]cn1)C(=O)N[C@@H](CCCNC(=N)N)C(=O)NCC(=O)N[C@@H](CC(C)C)C(=O)N1CCC[C@H]1C(=O)N[C@H](C(=O)O)C(C)C [Epitope P100] (H-HLSLRGLPV-OH; N-terminus and C-terminus assumed)	14.7%

---

Target: HLA-A0201 (Homo sapiens, UniProt P04439, D140Y/D185E/D98H/E176V/E277Q/G131W/G231S/I119V/I121R/I166T/I218V/L300P/L318F/N151K/N90K/P208A/P217A/Q86G/Q94H/R138H/R169H/T345S)
Construct: expressed in transfected cells; host or cells: HMy2.CIR
Test description: cell-based
Assay type: binding
Setup conditions: HLA-A0201 HMy2.CIR cells; competitor peptide 5μM; 24 hours; flow cytometry; read-out: 5μM Inhibition (%)
Residues, ends and D or L forms follow the SMILES beside them.
Listed here: items and their measured inhibition at 5 µM.

Compound	Unit	inhibition at 5 µM
CC[C@H](C)[C@H](NC(=O)[C@H](Cc1c[nH]cn1)NC(=O)[C@H](Cc1ccccc1)NC(=O)[C@@H](N)Cc1c[nH]c2ccccc12)C(=O)N[C@@H](CO)C(=O)N[C@@H](CS)C(=O)N[C@@H](CC(C)C)C(=O)N[C@H](C(=O)N[C@@H](Cc1ccccc1)C(=O)O)[C@@H](C)O [Epitope P52]	%	7.39
CC(C)C[C@H](NC(=O)[C@H](CC(N)=O)NC(=O)CNC(=O)[C@H](Cc1c[nH]cn1)NC(=O)[C@H](C)NC(=O)[C@H](CC(N)=O)NC(=O)[C@@H](NC(=O)[C@@H](N)[C@@H](C)O)C(C)C)C(=O)N1CCC[C@H]1C(=O)N[C@@H](CCCCN)C(=O)O [Epitope P47] (H-TVNAHGNLPK-OH; N-terminus and C-terminus assumed)	%	7.2

---

Target: HLA-A1101 (Homo sapiens, UniProt P04439, A114D/D185E/E176A/F33Y/L180Q/S129P/T187R)
Construct: expressed in transfected cells; host or cells: HMy2.CIR
Test description: cell-based
Assay type: binding
Setup conditions: 24 h, read-out: 5μM Inhibition (%)
Residues, ends and D or L forms follow the SMILES beside them.
Listed here: items and their measured inhibition at 5 µM.
Property name: inhibition at 5 µM (%)

Compound	Property name	Observed
CSCC[C@H](NC(=O)[C@H](CC(N)=O)NC(=O)[C@@H](NC(=O)[C@H](CC(N)=O)NC(=O)[C@@H](NC(=O)[C@H](Cc1ccc(O)cc1)NC(=O)[C@@H](N)CO)C(C)C)[C@@H](C)O)C(=O)NCC(=O)N[C@@H](CC(C)C)C(=O)O [Epitope P22] (H-SYVNTNMGL-OH; N-terminus and C-terminus assumed)	inhibition at 5 µM	12
CC[C@H](C)[C@H](NC(=O)[C@H](Cc1c[nH]c2ccccc12)NC(=O)[C@@H](NC(=O)CNC(=O)[C@H](Cc1ccccc1)NC(=O)[C@H](CO)NC(=O)[C@@H](NC(=O)[C@H](CC(C)C)NC(=O)[C@@H](N)Cc1ccc(O)cc1)C(C)C)C(C)C)C(=O)O [Epitope P11]	inhibition at 5 µM	17.1
CC[C@H](C)[C@H](NC(=O)[C@H](CO)NC(=O)[C@H](CO)NC(=O)[C@@H](NC(=O)[C@@H]1CCCN1C(=O)[C@@H](N)CO)[C@@H](C)CC)C(=O)N[C@@H](Cc1ccccc1)C(=O)N[C@@H](CO)C(=O)N[C@@H](CCCNC(=N)N)C(=O)O [Epitope P38] (H-SPISSIFSR-OH; N-terminus and C-terminus assumed)	inhibition at 5 µM	13.2
CC[C@H](C)[C@H](NC(=O)[C@H](CO)NC(=O)[C@@H]1CCCN1C(=O)[C@H](Cc1ccccc1)NC(=O)[C@H](Cc1ccccc1)NC(=O)[C@H](CC(=O)O)NC(=O)[C@H](CO)NC(=O)[C@@H]1CCCN1C(=O)[C@H](CC(C)C)NC(=O)[C@@H](N)Cc1ccccc1)C(=O)O [Epitope P31]	inhibition at 5 µM	8.5
CC(C)C[C@H](NC(=O)[C@@H](N)Cc1ccccc1)C(=O)N1CCC[C@H]1C(=O)N[C@@H](CO)C(=O)N[C@@H](CC(=O)O)C(=O)N[C@@H](Cc1ccccc1)C(=O)N[C@@H](Cc1ccccc1)C(=O)N1CCC[C@H]1C(=O)N[C@@H](CO)C(=O)N[C@H](C(=O)O)C(C)C [Epitope P1]	inhibition at 5 µM	1.41

---

Target: HLA-A2402 (Homo sapiens, UniProt P04439, D101N/D140Y/D185E/E176V/E190D/F33S/G103R/G107R/I119L/I121M/I306V/K335N/L105A/L180Q/L300P/N151K/N90K/Q86E/Q94H/R106L/R138H/R89G/T104I/T345S/V100E/W191G/Y123F)
Test description: cell-based
Assay type: binding
pIC50: −log10 of the molar value. Residues, ends and D or L forms follow the SMILES beside them.

Compound	pIC50
CSCC[C@H](NC(=O)[C@H](CC(N)=O)NC(=O)[C@@H](NC(=O)[C@H](CC(N)=O)NC(=O)[C@@H](NC(=O)[C@H](Cc1ccc(O)cc1)NC(=O)[C@@H](N)CO)C(C)C)[C@@H](C)O)C(=O)NCC(=O)N[C@@H](CC(C)C)C(=O)O [Epitope P22] (H-SYVNTNMGL-OH; N-terminus and C-terminus assumed)	> 5.30
CC(C)C[C@H](NC(=O)[C@H](CO)NC(=O)[C@H](CC(C)C)NC(=O)[C@@H](N)Cc1c[nH]cn1)C(=O)N[C@@H](CCCNC(=N)N)C(=O)NCC(=O)N[C@@H](CC(C)C)C(=O)N1CCC[C@H]1C(=O)N[C@H](C(=O)O)C(C)C [Epitope P100] (H-HLSLRGLPV-OH; N-terminus and C-terminus assumed)	< 4.82
CC[C@H](C)[C@H](NC(=O)[C@H](CO)NC(=O)[C@H](Cc1ccc(O)cc1)NC(=O)[C@@H](N)CC(C)C)C(=O)N[C@@H](CC(C)C)C(=O)N[C@@H](CO)C(=O)N1CCC[C@H]1C(=O)N[C@@H](Cc1ccccc1)C(=O)N[C@@H](CC(C)C)C(=O)O [Epitope P19] (H-LYSILSPFL-OH; N-terminus and C-terminus assumed)	> 5.30
